Values of MIC reported for Staphylococcus epidermidis appear below.
// units = µM; emit number, no label

CC[C@H](C)[C@H](NC(=O)CN)C(=O)N[C@@H](CCSC)C(=O)N[C@@H](CO)C(=O)N[C@@H](CO)C(=O)N[C@@H](CC(C)C)C(=O)N[C@@H](CCSC)C(=O)N[C@@H](CCCCN)C(=O)N[C@@H](CCCCN)C(=O)N[C@@H](CC(C)C)C(=O)N[C@@H](C)C(=O)N[C@@H](C)C(=O)N[C@@H](Cc1cnc[nH]1)C(=O)N[C@H](C(=O)N[C@@H](CCCCN)C(=O)N[C@@H](CCCCN)C(N)=O)[C@@H](C)CC | 11

Now consider a different molecule.
The reported Staphylococcus epidermidis MIC of NCCCC[C@H](NC(=O)[C@H](CCCN=C(N)N)NC(=O)[C@H](CCCN=C(N)N)NC(=O)[C@H](Cc1c[nH]c2ccccc12)NC(=O)[C@@H](N)CCCN=C(N)N)C(=O)N[C@@H](Cc1c[nH]c2ccccc12)C(=O)N[C@@H](Cc1c[nH]c2ccccc12)C(=O)N[C@@H](Cc1c[nH]c2ccccc12)C(=O)N[C@@H](Cc1c[nH]c2ccccc12)C(=O)O is 0.7
